- Test system: HL-60(TB) leukemia
- protocol_details: NCI-60 one-dose screen, 48 h
- assay_setup: 10 µM unless noted
Compounds without any hit were thinned out: in the full panel of roughly 83,000, 20% have a hit. The source made the active and inactive calls. Rule for the calls: active = growth percent below 10; inactive = the rest.
Outcome field: choose from active, inactive

# count of solved cases: 5
| molecule | study_system | class_name |
| --- | --- | --- |
| COC(=O)N[C@H]1CCc2c(Br)c(OC)c(OC)c(OC)c2-c2ccc(SC)c(=O)cc21 | HL-60(TB) leukemia | active |
| COc1ccc2nc(NC(=O)COc3cc(/C=C\c4cc(OC)c(OC)c(OC)c4)ccc3OC)sc2c1 | HL-60(TB) leukemia | inactive |
| COC(=O)[C@]12CCC(C)(C)C[C@H]1[C@H]1C(=O)C[C@@H]3[C@@]4(C)C[C@@]5(CC(C)(C)[C@@H]4CC[C@@]3(C)[C@]1(C)CC2)OO[C@@](C)(C(F)(F)F)O5 | HL-60(TB) leukemia | inactive |
| OCCNC(Cc1ccccc1)c1ccc2c(c1)OCO2 (centres undefined) | HL-60(TB) leukemia | inactive |
| Cn1cc(-c2csc(-c3cn(CCCCN4CCCCC4)c4ccc(F)cc34)n2)c2cccnc21 | HL-60(TB) leukemia | active |

Outcome logged for O=C(N/N=C/c1ccc(N(CCCl)CCCl)cc1)c1cccc2ccccc12 in this assay:
inactive

Can you check Oc1c(CCl)cc(Cl)cc1CCl next?
inactive
